System: P12-Ichikawa
assay summary: cell viability relative to DMSO control; higher = less cytotoxic
settings: HPLM + 10% dialyzed FBS; 48 h; 0.569 µM
reported endpoint: cell viability (%)

compound: CN(C)CCOC(c1ccccc1)c1ccccc1
value units: %
value: 112
//
compound: Cc1cc(O)c2c3c4c(cc(O)c13)C(C)(C)C(=O)c1c(O)cc(O)c(c1-4)C2=O
value units: %
value: 113
//
compound: O=C(Cc1cccc(OC(F)(F)F)c1)Nc1ccc(CCCCc2nnc(NC(=O)Cc3ccccn3)s2)nn1
value units: %
value: 101
//
compound: CCC(=O)O[C@@]1([C@@H](C)C[C@H]2[C@@H]3CCC/4=C/C(=O)/C=C\[C@]4(C)[C@@]3(F)[C@@H](O)C[C@]12C)C(=O)CCl
value units: %
value: 76.9
//
compound: C[C@@H]1CC[C@@]2(OC1)O[C@H]3C[C@H]4[C@@H]5C/C=C6/C[C@H](CC[C@]6(C)[C@H]5CC[C@]4(C)[C@H]3[C@@H]2C)O[C@@H]7O[C@H](CO)[C@@H](O[C@@H]8O[C@@H](C)[C@H](O)[C@@H](O)[C@H]8O)[C@H](O)[C@H]7O[C@@H]9O[C@@H](C)[C@H](O)[C@@H](O)[C@H]9O
value units: %
value: 136
//
compound: CCCCN(CCCC)CCC(O)c1cc2c(Cl)cc(Cl)cc2c2cc(C(F)(F)F)ccc12 (stereo not given)
value units: %
value: 130
//
compound: COc1ccc(/C=C\c2cc(OC)c(OC)c(OC)c2)cc1O
value units: %
value: 9.98
//
compound: O=C(NC1CCOCC1)c1ccc(-c2cc(-c3c[nH]nc3-c3ccccn3)ccn2)cc1
value units: %
value: 109
//
compound: CNC(=O)[C@H](Cc1ccccc1)NC(=O)[C@H](CC(C)C)[C@H](CSc1cccs1)C(=O)NO
value units: %
value: 89.7
//
compound: CSC1=CC(=CC=C1)NC2=NC3=C(C=N2)/C=C(C(=O)N3C)/C4=C(Cl)C=CC=C4Cl
value units: %
value: 99.2
//
compound: CCC[C@@H]1C[C@@H](C(=O)N[C@@H]([C@H]2O[C@H](SC)[C@H](O)[C@@H](O)[C@H]2O)[C@@H](C)O)N(C)C1.Cl
value units: %
value: 111
//
compound: COc1cc(N2CCC(C(N)=O)CC2)ccc1Nc1nc(N)c(Cl)c(Nc2ccccc2[S+](=O)([O-])C(C)C)n1
value units: %
value: 108
//
compound: O=C(O)c1ccccc1C(=O)Nc1ccc(-c2ccccc2)cc1
value units: %
value: 123
//
compound: O=C1c2c(O)cccc2[C@H]([C@@H]2O[C@H](CO)[C@@H](O)[C@H](O)[C@H]2O)c2cc(CO)cc(O)c21
value units: %
value: 106
//
compound: ClC1=CC=C(CCCOC/2=N/NC(=O)C(=C2NCC3=CN=CC=C3)/Br)C=C1
value units: %
value: 104

* * *

Consider the following compounds and their measured cell viability readings.
Test system: P12-Ichikawa
assay summary: cell viability relative to DMSO control; higher = less cytotoxic
settings: HPLM + 10% dialyzed FBS; 48 h; 15.4 µM

compound: C[N]1C=NC=C1[C@@](N)(C2=CC=C(Cl)C=C2)C3=CC=C4N(C)C(=O)\C=C(\C5=CC=CC(=C5)Cl)C4=C3
value units: %
cell viability: 50.1

compound: CC(C)(C)OC(=O)CN(Cc1ccc(Cl)cc1)Cc1ccc([N+](=O)[O-])s1
value units: %
cell viability: 93

compound: Cc1ccc(-n2nc(C(C)(C)C)cc2NC(=O)Nc2ccc(OCCN3CCOCC3)c3ccccc23)cc1
value units: %
cell viability: 109

compound: COc1cc2ncnc(-n3nc(-c4ccccn4)nc3N)c2cc1OC
value units: %
cell viability: 96

compound: COC(=O)N1CCN(Cc2cccc(NC(=O)Nc3ccc(C)nc3)c2F)CC1
value units: %
cell viability: 88.7

compound: CN1C(=O)\C(=C/C(=C1/NC2=C(F)C=C(I)C=C2)C(=O)NOCCO)C
value units: %
cell viability: 87.7

compound: CN(N=O)C(=O)N[C@H]1C(O)OC(CO)[C@@H](O)[C@@H]1O (some centres undefined)
value units: %
cell viability: 60.5

compound: CN(C)CCOC(c1ccccc1)c1ccccc1
value units: %
cell viability: 111

compound: CC(C)(C)/[N+]([O-])=C/c1ccc([S+](=O)([O-])[O][Na])cc1[S+](=O)([O-])[O][Na]
value units: %
cell viability: 119
